Entries and their complex III activity (% of control) Mean (SEM) values follow.
- target.or.test.system: mitochondrial complex III (Mus musculus)
- Construct: the supernatant containing the mitochondria was pelleted at 14,000 g; endogenous in cells; host or cells: C2C12 cells, mitochondrial fraction
- procedure.details: Complex III enzyme activity in mitochondrial fractions of C2C12 cells (cytochrome c reduction at 550 nm)
- Format: biochemical
- experimental.setup: compound at 100 μM; background by antimycin A (2.5 μM); n = 3 independent experiments
assay.endpoint: complex III activity (% of control) Mean (SEM)

# compound, target.or.test.system, result
rows = [
    ("CNC(=O)C[C@H](O)C[C@H](O)/C=C/c1c(-c2ccc(F)cc2)nc(N(C)S(C)(=O)=O)nc1C(C)C [rosuvastatin methylamide]", "mitochondrial complex III (Mus musculus)", "83.54 (5.98) % of control"),
    ("CC(C)c1nc(N(C)S(C)(=O)=O)nc(-c2ccc(F)cc2)c1/C=C/[C@@H](O)C[C@@H](O)CC(=O)N(C)C [rosuvastatin dimethylamide]", "mitochondrial complex III (Mus musculus)", "88.90 (7.89) % of control"),
    ("CCC(C)(C)C(=O)O[C@H]1C[C@@H](C)C=C2C=C[C@H](C)[C@H](CC[C@@H](O)C[C@@H](O)CC(N)=O)[C@H]21 [simvastatin amide]", "mitochondrial complex III (Mus musculus)", "73.77 (7.57) % of control"),
    ("CC(C)c1nc(N(C)S(C)(=O)=O)nc(-c2ccc(F)cc2)c1/C=C/[C@@H](O)C[C@@H](O)CC#N", "mitochondrial complex III (Mus musculus)", "95.96 (11.43) % of control"),
    ("CC(C)c1c(C(=O)Nc2ccccc2)c(-c2ccccc2)c(-c2ccc(F)cc2)n1CC[C@@H](O)C[C@@H](O)CC(=O)NO [atorvastatin hydroxamic acid]", "mitochondrial complex III (Mus musculus)", "105.60 (13.57) % of control"),
    ("CC[C@H](C)C(=O)O[C@H]1C[C@@H](C)C=C2C=C[C@H](C)[C@H](CC[C@@H]3C[C@@H](O)CC(=O)O3)[C@H]21 [lovastatin lactone, reference compound]", "mitochondrial complex III (Mus musculus)", "63.21 (3.31) % of control"),
    ("CC[C@H](C)C(=O)O[C@H]1C[C@@H](C)C=C2C=C[C@H](C)[C@H](CC[C@@H](O)C[C@@H](O)CC(=O)NO)[C@H]21 [lovastatin hydroxamic acid]", "mitochondrial complex III (Mus musculus)", "92.95 (10.32) % of control"),
    ("CC(C)c1nc(N(C)S(C)(=O)=O)nc(-c2ccc(F)cc2)c1/C=C/[C@@H](O)C[C@@H](O)Cc1nnn[nH]1", "mitochondrial complex III (Mus musculus)", "85.24 (4.09) % of control"),
]

----------
- target.or.test.system: catalytic domain of the human HMG-CoA reductase (Homo sapiens)
- Sequence (P04035 426-888 limits assumed): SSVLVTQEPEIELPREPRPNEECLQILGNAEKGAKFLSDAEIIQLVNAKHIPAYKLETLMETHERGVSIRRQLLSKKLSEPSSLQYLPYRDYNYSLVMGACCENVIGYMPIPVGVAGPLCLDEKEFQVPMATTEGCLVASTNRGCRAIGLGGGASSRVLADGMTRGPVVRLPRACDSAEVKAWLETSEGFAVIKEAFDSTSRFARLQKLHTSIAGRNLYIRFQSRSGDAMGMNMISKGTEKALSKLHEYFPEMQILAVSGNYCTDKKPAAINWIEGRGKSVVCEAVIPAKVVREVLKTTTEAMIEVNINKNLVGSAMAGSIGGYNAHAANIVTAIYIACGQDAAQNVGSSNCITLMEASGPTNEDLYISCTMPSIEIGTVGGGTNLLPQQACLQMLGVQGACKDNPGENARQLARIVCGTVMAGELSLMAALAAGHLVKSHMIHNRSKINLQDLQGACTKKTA

# molecule, display.unit, IC50
measured = [
    ("CCC(C)(C)C(=O)O[C@H]1C[C@@H](C)C=C2C=C[C@H](C)[C@H](CC[C@@H](O)C[C@@H](O)CC(=O)NO)[C@H]21 [simvastatin hydroxamic acid]", "nM", 39),
    ("CCC(C)(C)C(=O)O[C@H]1C[C@@H](C)C=C2C=C[C@H](C)[C@H](CC[C@@H](O)C[C@@H](O)CC(=O)O)[C@H]21 [simvastatin carboxylic acid, reference compound]", "nM", 39),
]
